Please go through the items and note down their nematicidal activity on the basis of the percentage of gall formation.
System: Meloidogyne incognita
measurement protocol: Meloidogyne incognita test (sand, salad seedlings, gall formation)
Type: in vivo
conditions used: application rate 20 ppm, after 14 days, 100% = no galls, 0% = galls equal to untreated control
Write the answer as a number in %, unit excluded.

q: Indicate the recorded nematicidal activity on the basis of the percentage of gall formation value for this compound: `O=C(NS(=O)(=O)c1ccccc1Cl)c1cc2cc(C(F)(F)F)cc(Cl)n2n1`
a: 100

q: Please look at this compound and report its nematicidal activity on the basis of the percentage of gall formation: `CC(C)Nc1cccc(F)c1S(=O)(=O)NC(=O)c1cc2cc(C(F)(F)F)ccn2n1`
a: 100

q: Item `O=C(NS(=O)(=O)c1cccc(Cl)c1)c1cc2c(Cl)cc(C(F)(F)F)cn2n1` : provide nematicidal activity on the basis of the percentage of gall formation
a: 90

q: Identify measured nematicidal activity on the basis of the percentage of gall formation corresponding to `CCc1ccc(Cl)c(S(=O)(=O)NC(=O)c2cc3cc(C(F)(F)F)cc(Cl)n3n2)c1`
a: 100

q: Consider the compound `O=C(NS(=O)(=O)c1cc2c(cc1Cl)OC(F)(F)O2)c1cc2c(Cl)cc(C(F)(F)F)cn2n1` . State its measured nematicidal activity on the basis of the percentage of gall formation.
a: 90

q: Identify the reported nematicidal activity on the basis of the percentage of gall formation for the following entry. `O=C(NS(=O)(=O)c1ncc(C(F)(F)F)cc1Cl)c1cc2c(Cl)cc(C(F)(F)F)cn2n1`
a: 90

q: Give the measured nematicidal activity on the basis of the percentage of gall formation for `COc1ccc(F)c(S(=O)(=O)NC(=O)c2cc3cc(Cl)cc(Cl)n3n2)c1`
a: 100

q: Identify measured nematicidal activity on the basis of the percentage of gall formation associated with `CSc1cccc(Cl)c1S(=O)(=O)NC(=O)c1cc2cc(C(F)(F)F)cc(Cl)n2n1`
a: 100

q: Annotate the compound `COc1ccccc1S(=O)(=O)NC(=O)c1cc2c(Cl)cc(C(F)(F)F)cn2n1` with its measured nematicidal activity on the basis of the percentage of gall formation.
a: 90

q: Indicate its recorded nematicidal activity on the basis of the percentage of gall formation; the compound in question is `O=C(NS(=O)(=O)c1c(Cl)cccc1Cl)c1cc2c(Cl)cc(C(F)(F)F)cn2n1`
a: 100

q: Give the reported value of nematicidal activity on the basis of the percentage of gall formation for this record: `COc1ccc(Br)c(S(=O)(=O)NC(=O)c2cc3cc(C(F)(F)F)cc(Cl)n3n2)c1`
a: 100

q: Quote nematicidal activity on the basis of the percentage of gall formation reported for `O=C(NS(=O)(=O)C1CC1)c1cc2cc(C(F)(F)F)ccn2n1` please.
a: 90

q: Please indicate nematicidal activity on the basis of the percentage of gall formation recorded for `CC(C)Sc1cccc(Cl)c1S(=O)(=O)NC(=O)c1cc2cc(C(F)(F)F)ccn2n1`
a: 100

q: Return nematicidal activity on the basis of the percentage of gall formation (reported value) for this compound: `CCCOc1ccc(Cl)c(S(=O)(=O)NC(=O)c2cc3cc(C(F)(F)F)cc(Cl)n3n2)c1`
a: 100

q: Provide measured nematicidal activity on the basis of the percentage of gall formation value, entry: `CCSc1cccc(Cl)c1S(=O)(=O)NC(=O)c1cc2cc(C(F)(F)F)ccn2n1`
a: 100

q: Output measured nematicidal activity on the basis of the percentage of gall formation for this item: `O=C(NS(=O)(=O)c1c(Cl)cccc1Cl)c1cc2cc(C(F)(F)F)cc(Cl)n2n1`
a: 100

q: Identify measured nematicidal activity on the basis of the percentage of gall formation corresponding to `CCc1ccc(C)c(S(=O)(=O)NC(=O)c2cc3cc(C(F)(F)F)ccn3n2)c1`
a: 100

q: Answer with reported nematicidal activity on the basis of the percentage of gall formation of `CCc1ccc(Cl)c(S(=O)(=O)NC(=O)c2cc3cc(C(F)(F)F)ccn3n2)c1`
a: 100

q: Tell me measured nematicidal activity on the basis of the percentage of gall formation for `O=C(NS(=O)(=O)c1c(F)cccc1Cl)c1cc2cc(Cl)cc(Cl)n2n1` please.
a: 90

q: Let me know recorded nematicidal activity on the basis of the percentage of gall formation for `COc1ccc(F)c(S(=O)(=O)NC(=O)c2cc3cc(C(F)(F)F)cc(Cl)n3n2)c1` , thanks.
a: 100

q: Specify measured nematicidal activity on the basis of the percentage of gall formation for `CCOc1ccc(Cl)c(S(=O)(=O)NC(=O)c2cc3cc(C(F)(F)F)cc(Cl)n3n2)c1` .
a: 90

q: Return nematicidal activity on the basis of the percentage of gall formation for the following compound: `CCS(=O)(=O)NC(=O)c1cc2c(Cl)cc(C(F)(F)F)cn2n1`
a: 100

q: Provide only the value of recorded nematicidal activity on the basis of the percentage of gall formation for `O=C(NS(=O)(=O)c1cc(C(F)(F)F)ccc1Cl)c1cc2cc(C(F)(F)F)ccn2n1`
a: 100

q: Specify nematicidal activity on the basis of the percentage of gall formation for `CCCOc1ccc(Cl)c(S(=O)(=O)NC(=O)c2cc3cc(C(F)(F)F)ccn3n2)c1` and stop.
a: 100

q: Read off the recorded nematicidal activity on the basis of the percentage of gall formation for `O=C(NS(=O)(=O)c1cc(Cl)ccc1Cl)c1cc2cc(C(F)(F)F)ccn2n1`
a: 100

q: Supply nematicidal activity on the basis of the percentage of gall formation value. Item: `O=C(NS(=O)(=O)c1c(F)cccc1Cl)c1cc2cc(C(F)(F)F)cc(Cl)n2n1`
a: 100

q: Look up and state reported nematicidal activity on the basis of the percentage of gall formation for `O=C(NS(=O)(=O)c1c(Cl)cccc1Cl)c1cc2cc(C(F)(F)F)ccn2n1`
a: 100

q: Entry `COc1ccc(F)c(S(=O)(=O)NC(=O)c2cc3cc(C(F)(F)F)ccn3n2)c1` needs its nematicidal activity on the basis of the percentage of gall formation filled in; supply it.
a: 100

q: State its nematicidal activity on the basis of the percentage of gall formation for this compound: `O=C(NS(=O)(=O)c1ccc(Cl)cc1)c1cc2cc(C(F)(F)F)cc(Cl)n2n1`
a: 90

q: Respond only with nematicidal activity on the basis of the percentage of gall formation recorded for `COc1ccc(Cl)c(S(=O)(=O)NC(=O)c2cc3cc(C(F)(F)F)ccn3n2)c1`
a: 100

q: Indicate its recorded nematicidal activity on the basis of the percentage of gall formation; the compound in question is `CCOc1ccc(Cl)c(S(=O)(=O)NC(=O)c2cc3cc(C(F)(F)F)ccn3n2)c1`
a: 100

q: Give recorded nematicidal activity on the basis of the percentage of gall formation. `O=C(NS(=O)(=O)c1cc(C(F)(F)F)ccc1Br)c1cc2cc(C(F)(F)F)ccn2n1`
a: 100

----------
Tested on: Meloidogyne incognita
measurement protocol: Meloidogyne incognita test (sand, salad seedlings, gall formation)
Type: in vivo
conditions used: application rate 20 ppm, after 14 days, 100% = no galls, 0% = galls equal to untreated control
outcome measure: nematicidal activity on the basis of the percentage of gall formation (%)
Just the number please, in %, no unit attached.

q: Please indicate recorded nematicidal activity on the basis of the percentage of gall formation of `COc1ccc(Cl)c(S(=O)(=O)NC(=O)c2cc3cc(C(F)(F)F)cc(Cl)n3n2)c1` measured with Meloidogyne incognita.
a: 100

q: Return reported nematicidal activity on the basis of the percentage of gall formation for target or system Meloidogyne incognita, item `CSc1cccc(Cl)c1S(=O)(=O)NC(=O)c1cc2cc(C(F)(F)F)ccn2n1` .
a: 100

q: Lab note: record nematicidal activity on the basis of the percentage of gall formation of `CCOc1ccc(Cl)c(S(=O)(=O)NC(=O)c2cc3cc(Cl)cc(Cl)n3n2)c1` tested on Meloidogyne incognita.
a: 100

q: Give reported nematicidal activity on the basis of the percentage of gall formation for `O=C(NS(=O)(=O)c1ccccc1Cl)c1cc2cc(Cl)cc(Cl)n2n1` (Meloidogyne incognita)
a: 90

q: Write down measured nematicidal activity on the basis of the percentage of gall formation (Meloidogyne incognita) for this compound. `COc1ccc(Cl)c(S(=O)(=O)NC(=O)c2cc3cc(Cl)cc(Cl)n3n2)c1`
a: 90

q: Look up Meloidogyne incognita data: nematicidal activity on the basis of the percentage of gall formation of `COc1ccc(Br)c(S(=O)(=O)NC(=O)c2cc3cc(C(F)(F)F)ccn3n2)c1` , then report it.
a: 100

q: Provide Meloidogyne incognita nematicidal activity on the basis of the percentage of gall formation reading for `CCc1ccc(Cl)c(S(=O)(=O)NC(=O)c2cc3cc(Cl)cc(Cl)n3n2)c1` .
a: 100

q: Lab note: record nematicidal activity on the basis of the percentage of gall formation of `O=C(NS(=O)(=O)c1cc(Cl)ccc1Cl)c1cc2cc(C(F)(F)F)cc(Cl)n2n1` tested on Meloidogyne incognita.
a: 100

Reference source for all entries: patent US20180273534A1
